Attribution: PubChem BioAssay

Assay Details: S. cerevisiae growth modulation with rapamycin, primary screen, strain BY4716, OD600, 96 h (AID 1091); further: test concentration not given here
Condition Info: higher = more signal, called active from +8 up or from −8 down
Measured Attribute: z-score
Quick one: just the number, no unit, thanks!

Sample answers from the record:
For the molecule COc1ccc([Si](C)(C)[C@@H]2[C@@H](CCO)O[C@]3(C(=O)N(Cc4ccc(N5C(=O)COc6ccccc65)cc4)c4ccccc43)[C@H]2C)cc1 , what z-score is on record?
35.7

For the molecule CCCCCC1=C2CNC(CCC)(C(=O)OC)C=C2C(C)C1=O (stereo not given) , what z-score is on record?
0.573

For the molecule COC(=O)C=C(CC(O)c1cccc(Cl)c1)OC (stereo not given) , what z-score is on record?
-1.02

For the molecule CC1CC/C=C\[C@H]2OC34C=CCN(c5ccc(Cl)cc5)C(=O)[C@H]3N(CCO)C(=O)[C@]4(C)C2C(=O)O1 (stereo not given in full) , what z-score is on record?
-0.528

For the molecule C=CCNC(=O)[C@H]1[C@@H]2C(=O)O[C@@H](c3ccccc3)[C@@H](c3ccccc3)N2[C@@H](c2ccc(OCCO)cc2)[C@]12C(=O)N(C(=O)OCCOC)c1ccccc12 , what z-score is on record?
4.62

For the molecule [N-]=[N+]=NCc1ccccc1[C@@H]1OC(c2ccc(OCCCO)cc2)=N[C@]1(Cc1ccccc1N=[N+]=[N-])C(=O)N1CCOCC1 , what z-score is on record?
4.14

***
For the molecule O=C1OCC=C[C@H]2OC34C=CCN(CCN5CCOCC5)C(=O)[C@H]3N(CCCO)C(=O)[C@@H]4[C@@H]12 (stereo not given in full) , what z-score is on record?
0.238

For the molecule COc1cc2c(cc1O)C=[N+](Cc1cccc(OC(F)(F)F)c1)CC2 , what z-score is on record?
-1.98

For the molecule NCCCCCNC(=O)[C@@H]1C[C@@H]2C(=O)N[C@@H](Cc3ccccc3)C(=O)N2[C@@H]1c1cccc(OCCO)c1 , what z-score is on record?
0.68
